The measured values listed here are drawn from ChEMBL document CHEMBL1201862.

- target.system: Streptokinase A (Streptococcus pyogenes serotype M1, UniProt P10520)
- Sequence (P10520 whole entry): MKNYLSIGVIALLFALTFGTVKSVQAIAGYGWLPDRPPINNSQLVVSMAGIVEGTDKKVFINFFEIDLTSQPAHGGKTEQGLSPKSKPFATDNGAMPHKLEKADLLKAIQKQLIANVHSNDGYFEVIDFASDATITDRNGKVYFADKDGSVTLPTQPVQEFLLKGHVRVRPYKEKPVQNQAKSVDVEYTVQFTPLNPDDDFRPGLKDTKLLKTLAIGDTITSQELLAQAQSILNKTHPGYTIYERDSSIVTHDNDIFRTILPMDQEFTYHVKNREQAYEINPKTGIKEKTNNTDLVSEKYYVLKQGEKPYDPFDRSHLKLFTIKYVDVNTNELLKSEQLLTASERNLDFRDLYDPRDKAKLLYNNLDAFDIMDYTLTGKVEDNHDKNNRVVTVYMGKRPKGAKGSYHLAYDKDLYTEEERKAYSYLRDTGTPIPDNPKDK
- method.summary: viability-normalized secreted streptokinase activity reduction – plasminogen activation absorbance, OD405, dose response (AID 1914);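 further: secreted streptokinase activity via plasminogen activation per viability signal from cell pellet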
- Format: functional, Streptococcus pyogenes M1 GAS
Form field: EC50 (one value per entry).

N#Cc1nc(-c2ccccc2Cl)oc1N1CCN(C(=O)c2ccco2)CC1 :: > 150 µM (not active)

Query: Note down EC50 recorded for CCOc1ccc(C(=O)NC(=S)Nc2ccc(NC(=O)CC)cc2)cc1[N+](=O)[O-]
Response: > 150 µM (not active)

Query: Answer with the recorded EC50 for the compound listed here: CCOc1cc(N2CCOCC2)c(OCC)cc1NC(=O)C1=NN(c2cccc(C)c2)C(=O)CC1
Response: > 150 µM (not active)

Query: Please list EC50 recorded for the compound CCCCCCCCCCCC(=O)c1c(O)cccc1O
Response: > 150 µM (not active)

====

Entries and their measured IC50 follow.
- target.system: Kappa-type opioid receptor (Homo sapiens, UniProt P41145)
- Sequence (P41145 whole entry): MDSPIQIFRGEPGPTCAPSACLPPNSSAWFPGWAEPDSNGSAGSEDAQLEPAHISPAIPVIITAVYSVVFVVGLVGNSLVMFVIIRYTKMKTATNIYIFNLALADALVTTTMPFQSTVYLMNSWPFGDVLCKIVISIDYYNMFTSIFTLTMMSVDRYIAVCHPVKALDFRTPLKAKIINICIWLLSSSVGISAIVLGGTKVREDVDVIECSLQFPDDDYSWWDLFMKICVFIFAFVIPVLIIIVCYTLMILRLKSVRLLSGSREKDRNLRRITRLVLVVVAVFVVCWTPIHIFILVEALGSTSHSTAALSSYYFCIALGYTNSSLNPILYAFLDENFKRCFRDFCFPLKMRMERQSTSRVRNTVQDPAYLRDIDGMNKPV
- Type: functional

C/C(=N\Nc1ncc(Cl)cc1Cl)c1ccccn1 :: > 32 µM
CC(=O)NS(=O)(=O)c1ccc(Nc2ccc([N+](=O)[O-])c3nonc23)cc1 :: > 32 µM

Attention now shifts to the item below.
Query: Using the record for CCN1C(=O)/C(=C/C=C2/Sc3ccccc3N2CCO)SC1=S , state its measured IC50.
Response: 27.6 µM

====

- method.summary: loss of viability in HepG2 cells – cell-based, CellTiter-Glo, cherry-picked, cytotoxicity control for Shn3 inhibitor project, dose response (AID 624134)
- Assay type: functional
Activity calls are given as the source filed them.
test.readout: AC50

CCCOC(=O)c1[nH]c2c(c1C)C(=O)CC(c1cc(OC)c(OC)c(OC)c1)C2 (stereo not given) :: 52.9 µM (active)
COc1ccccc1C(=O)Nc1nc2ccccc2[nH]1 :: 6.57 µM (active)
COc1ccc(CCN2CCC(Nc3nc4ccccc4n3Cc3ccc(F)cc3)CC2)cc1 :: 12.6 µM (active)
NS(=O)(=O)c1ccc(CCNCc2cc(Br)ccc2OCc2ccccc2F)cc1 :: 36.9 µM (active)

Query: Fill in reported AC50 for this entry: S=C(NCCCCN(Cc1ccc(Cl)cc1)c1ccc(Br)cn1)NCCCc1cnc[nH]1
Response: 19.5 µM (active)

====

- target.system: Cytochrome P450 2C19 (Homo sapiens, UniProt P33261)
- Sequence (P33261 whole entry): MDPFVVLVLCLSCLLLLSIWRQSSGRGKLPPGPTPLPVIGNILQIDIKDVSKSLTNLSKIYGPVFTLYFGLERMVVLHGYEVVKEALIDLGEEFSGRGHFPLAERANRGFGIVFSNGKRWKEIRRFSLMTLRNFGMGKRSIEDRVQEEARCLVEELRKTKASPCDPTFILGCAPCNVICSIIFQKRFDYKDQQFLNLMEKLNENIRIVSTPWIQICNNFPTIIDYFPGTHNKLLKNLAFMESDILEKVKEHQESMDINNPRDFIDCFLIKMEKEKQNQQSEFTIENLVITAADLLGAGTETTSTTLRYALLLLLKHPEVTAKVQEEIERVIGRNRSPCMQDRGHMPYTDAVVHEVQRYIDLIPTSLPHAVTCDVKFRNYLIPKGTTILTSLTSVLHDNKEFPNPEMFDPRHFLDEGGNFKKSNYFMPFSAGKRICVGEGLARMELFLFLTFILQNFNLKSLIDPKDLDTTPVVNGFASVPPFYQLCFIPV
- method.summary: Cytochrome panel assay with activity outcomes. Panel member name: p450-cyp2c19 Compounds with AC50 equal or less than 10 uM are considered active
- Format: functional
- measurement.conditions: read-out: AC50
Each entry below carries its reported AC50.

Recorded AC50, per entry:
COc1ccc(N(CC(=O)N/N=C/c2cccs2)S(=O)(=O)c2ccc(OC)c(OC)c2)cc1 :: 0.0178 µM (inconclusive)
Cc1ccccc1/C=N\NC(=O)c1csnn1 :: 11.2 µM (inconclusive)
CC1CN(C2CCN(C(=O)c3cccc(Cl)c3)CC2)CC(C)O1 (stereo not drawn) :: 5.62 µM (inconclusive)
CCOc1ccc(C(=O)Cc2cc(OC)c(OC)cc2[N+](=O)[O-])cc1 :: 1.41 µM (inconclusive)

Query: Respond only with AC50 recorded for CCCC(c1cc(C(C)(C)C)c(O)cc1C)c1cc(C(C)(C)C)c(O)cc1C
Response: 6.31 µM (inconclusive)

Query: For the compound COc1ccc(-c2nnc3n2N=C(C)CS3)cc1 , give its measured AC50 value.
Response: 25.1 µM (inconclusive)

Query: Quickly give me recorded AC50 for O=c1c(-c2ccccc2)nc2cncnc2n1Cc1ccccc1Cl
Response: 7.94 µM (inconclusive)

Query: Find the measured AC50 of COc1ccc(CC(=O)Nc2ccc(-c3nnc(-c4ccccc4)o3)cc2)cc1 and report it.
Response: 1.26 µM (inconclusive)

Query: Tell me measured AC50 for C/C(=N/O)c1ccc2cc(Br)c3ccccc3c2c1 please.
Response: 1 µM (inconclusive)

Query: Give the measured AC50 for c1ccc2[nH]c(-c3cscn3)nc2c1
Response: 7.94 µM (inconclusive)

Query: Identify measured AC50 associated with Cc1ccc(C(=O)Nc2nc3ccccc3n3nnnc23)cc1
Response: 14.1 µM (inconclusive)

Query: Assign AC50 to the following record: CCCCn1nc2cc(C(=O)NCC3CC3)ccc2c1OCC
Response: 14.1 µM (inconclusive)

Query: Retrieve AC50 measured for CCc1c(O)oc2nnc(C)c-2c1C and print it.
Response: 11.2 µM (inconclusive)
